Recorded viability, T/C by entry
# System: 435261-313-R-J1-PDC complex spheroid viability
# assay_explanation: Anticancer human tumor 435261-313-R-J1-PDC patient-derived colon adenocarcinoma cell line growth inhibition [GQUAD]
# condition_notes: compound 10 µM; active compounds read low

Known results for compounds:
INSERT INTO assay_data (compound, assay_target, observed_result) VALUES
  ('Cc1cnc(CNC(=O)c2c(=O)c3ccc(N4CCCN(C)CC4)nc3n3c2sc2ccccc23)cn1', '435261-313-R-J1-PDC complex spheroid viability', '0.19% [middle of 7 runs]'),
  ('O=C(NO)c1cnc(N2CCN(S(=O)(=O)c3ccc4ccccc4c3)CC2)nc1', '435261-313-R-J1-PDC complex spheroid viability', '0.16%');

Record request: viability, T/C value, item Cc1[nH]c2ccc(F)cc2c1-c1nc2c3cccnc3c3ncccc3c2[nH]1
24.5% [middle of 8 runs]

Find the recorded viability, T/C belonging to CN(C)c1ccc(Nc2c3ccc(NC(=O)CCN4CCCC4)cc3nc3cc(NC(=O)CCN4CCCC4)ccc23)cc1 and report it.
41.3% [middle of 11 runs]

Could you share which viability, T/C value was measured for CC(C)(O)C1CCC(Nc2ccc3ncc(-c4cccc(C(F)(F)F)c4)n3n2)CC1 (stereo not given) ?
12.9%

* * *

# System: 435261-313-R-J1-PDC complex spheroid viability
# assay_explanation: Anticancer human tumor 435261-313-R-J1-PDC cell line growth inhibition [GQUAD];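 further: spheroids exposed to the agents for seven days before readout; percent of vehicle control viability with DMSO wells as 100%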
# condition_notes: second compound 0.1 µM; first compound 0.1 µM; active compounds read low
Could you mark each record T if its viability, T/C falls strictly under 90%, and F if it equals or exceeds it?

viability, T/C strictly < 90% for this molecule? C=CCn1c(=O)c2cnc(Nc3ccc(N4CCN(C)CC4)cc3)nc2n1-c1cccc(C(C)(C)O)n1 + Cc1cnc(CNC(=O)c2c(=O)c3ccc(N4CCCN(C)CC4)nc3n3c2sc2ccccc23)cn1
T

Given the entry CC(C)n1c(=O)n(C)c2cnc3cc(F)c(-c4ccc(OCCCN5CCCCC5)nc4)cc3c21 + Cc1cnc(CNC(=O)c2c(=O)c3ccc(N4CCCN(C)CC4)nc3n3c2sc2ccccc23)cn1 , would its reported viability, T/C be below 90%?
T

Strictly below 90%: is that where viability, T/C of COc1cccc2c1C(=O)c1c(O)c3c(c(O)c1C2=O)CC(O)(C(=O)CO)CC3OC1CC(N)C(O)C(C)O1 (stereo not given) + CN(C)c1ccc(Nc2c3ccc(NC(=O)CCN4CCCC4)cc3nc3cc(NC(=O)CCN4CCCC4)ccc23)cc1 sits?
T

Consider COc1ccc([C@@H](O)c2cc(-c3ncnc4cc(N5CCOCC5)ccc34)c(F)cc2Cl)nn1 + Cc1[nH]c2ccc(F)cc2c1-c1nc2c3cccnc3c3ncccc3c2[nH]1 . Does its viability, T/C lie strictly below 90%?
F

API: query returns whether the molecule falls strictly under 90% in viability, T/C. Query: COc1ncnc(C2CC2)c1-c1ncc2cnn(Cc3ccc(-c4nc(C(F)(F)F)cn4C(C)C)cc3)c2n1 + Cc1cnc(CNC(=O)c2c(=O)c3ccc(N4CCCN(C)CC4)nc3n3c2sc2ccccc23)cn1
T

* * *

# System: 435261-313-R-J1-PDC complex spheroid viability
# assay_explanation: Anticancer human tumor 435261-313-R-J1-PDC cell line growth inhibition [GQUAD];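 further: spheroids exposed to the agents for seven days before readout; percent of vehicle control viability with DMSO wells as 100%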
# condition_notes: second compound 3.16 µM; first compound 0.0316 µM; active compounds read low
Listing of entries alongside the reported viability, T/C.
# number only, unit % dropped from output

INSERT INTO measurements (compound, scale_unit, observed_result) VALUES
  ('C=CCn1c(=O)c2cnc(Nc3ccc(N4CCN(C)CC4)cc3)nc2n1-c1cccc(C(C)(C)O)n1 + CN(C)c1ccc(Nc2c3ccc(NC(=O)CCN4CCCC4)cc3nc3cc(NC(=O)CCN4CCCC4)ccc23)cc1', '%', 50.9),
  ('CC(C)n1c(=O)n(C)c2cnc3cc(F)c(-c4ccc(OCCCN5CCCCC5)nc4)cc3c21 + CN(C)c1ccc(Nc2c3ccc(NC(=O)CCN4CCCC4)cc3nc3cc(NC(=O)CCN4CCCC4)ccc23)cc1', '%', 63.7);

Moving on to another compound below.
Param readout= viability, T/C; system= 435261-313-R-J1-PDC complex spheroid viability; entry= CC1COCCN1c1cc(C2(S(C)(=N)=O)CC2)nc(-c2ccnc3[nH]ccc23)n1 (stereo not drawn) + Cc1cnc(CNC(=O)c2c(=O)c3ccc(N4CCCN(C)CC4)nc3n3c2sc2ccccc23)cn1 ; returns value.
18.1
